Could you please report measured growth for the items listed next?
# Tested on: UACC-62 melanoma
# Measurement Protocol: NCI-60 one-dose screen, 48 h (100 = growth as untreated, 0 = no growth, -100 = all killed)
# Condition Info: 10 µM
The panel holds about 83,000 compounds, 20% with a hit somewhere; the sample as a whole holds those more often.
Numbers only, in %.

Below, each entry is followed by its recorded growth result.
Compound	growth [%]
COc1ccc(CCN2C(=O)/C(=C/c3csc(C#N)n3)SC2=S)cc1	-26.6
CO[C@@H]1CSSC1Cn1nc(-c2ccc(Oc3ccccc3)cc2)c2c(N)ncnc21 (some centres undefined)	-53.9
N#Cc1c(NC(=O)c2ccc(C(F)(F)F)cc2C(F)(F)F)sc2c1CCC(=O)C2	-89.5
CC(=O)Nc1nc(-c2ccc(N3CCN(C)CC3)c(NS(=O)(=O)c3ccc(C(F)(F)F)cc3)c2)cs1	6.26
CCCCCCCCCCCCCCCCCCCC(=O)NCCc1c[nH]c2ccc(OC(=O)NOCCOCCOCCOCCOCCOCCOCCOCCOCCOCCOCCOCCOCCOCCOCCOCCOCCOCCOCCOCCOCCOCCOC)cc12	-69.4

Hey, quick one: what's growth for each of these?
1. CCCn1c(O)c(N=Nc2nc(-c3cc4ccccc4oc3=O)cs2)c2cc(Br)ccc21
2. Cn1c(O)c(N=Nc2nc(-c3cc4ccccc4oc3=O)cs2)c2cc(Br)ccc21

1. 94.4
2. 65

For each entry beneath this line, provide reported growth.
1. O=C(CNc1nc(-c2ccccc2)cs1)Nc1cccc(Cl)c1
2. CCNCCCn1c2c(c3cc(OC)c(OC)cc3c1=O)C(=O)c1cc3c(nc1-2)OCO3

[19.8, -15.3]

* * *

# Test system: T-47D breast
# Measurement Protocol: NCI-60 one-dose screen, 48 h (100 = growth as untreated, 0 = no growth, -100 = all killed)
# Condition Info: 10 µM
This is part of a sample that, as a whole, favours compounds with a hit. Of some 83,000 tested, about 20% had one in any assay.
If the reported growth equals or exceeds 10%, assign Satisfied. If not, assign Not satisfied.

Dear colleague, could you confirm whether O=C(CNc1nc(-c2ccccc2)cs1)Nc1ccc([N+](=O)[O-])cc1 has growth at or above 10%?
Not satisfied

// repeat for N#Cc1c(-c2ccc(Cl)cc2)cc(-c2ccccc2)nc1OCc1ccccc1 and report
Satisfied

Another molecule: COc1ccc(N(C)c2cc(C#N)nc3ccccc23)cc1/C=C/C(=O)NO
Not satisfied

Item: O=C(Cc1ccc2c(c1)CN(C1CCC(=O)NC1=O)C2=O)NCCc1ccccc1 (stereo not given)
Not satisfied

Now try CCCCCCCCCCCCCCCCCCCC(=O)NCCc1c[nH]c2ccc(O)cc12 .
Satisfied

* * *

I'd be grateful if you could share measured growth for these entries.
# System: A498 renal
# Measurement Protocol: NCI-60 one-dose screen, 48 h (100 = growth as untreated, 0 = no growth, -100 = all killed)
# Condition Info: 10 µM
This is part of a sample that, as a whole, favours compounds with a hit. Of some 83,000 tested, about 20% had one in any assay.
Numbers only, in %.

# count of solved cases: 3
Compound	Test Value
C#Cc1ccc(S(=O)(=O)Nc2cccc(-c3csc(NC(C)=O)n3)c2)cc1	96
C=C1CCC2C3(C)COC(c4cc(F)cc(F)c4)OC3CCC2(C)C1C/C=C1/C(=O)OCC1O (stereo unspecified)	106
COc1ccc(/C(C)=N/N=C2C(=O)N(C)c3ccc(Br)cc32)cc1S(N)(=O)=O	99.6

Parameters: items (list). Returns: growth for each item.
1. COC(=O)c1c(C(=O)OC)c2n(c1C)[C@@H]([C@@H](C)[C@H]1CC[C@H]3[C@@H]4CCC5=CC(=O)CC[C@]5(C)[C@H]4CC[C@]13C)SC2
2. CCCCCc1ccc(S(=O)(=O)N(C(C)=O)c2cc(-c3csc(N(C)C(C)=O)n3)ccc2N2CCN(C)CC2)cc1

71.8
123

Please go through the list and note growth for each compound.
1. Nc1n[nH]c2cccc(C#Cc3cccc(NC(=O)Nc4cc(C(F)(F)F)cc(C(F)(F)F)c4)c3)c12
2. COc1cc(/C=C/C(=O)c2cc(OC)c(OC)c(OC)c2)ccc1Oc1nc(Nc2ccc(F)cc2)nc(N(C)C)n1

1: -17.4; 2: -1.01

Hey, can you go through the list below and give me growth for every item?
1. COc1ccc2[nH]c(=O)c(CSc3cccc(N)c3)cc2c1
2. C=C(C)[C@@H]1CC[C@]2(C)[C@H](CC=C3[C@@H]4CC(C)(C)CC[C@]4(C(=O)N4CCOCC4)CC[C@]32C)[C@@]1(C)CCCN

72.6
-89.5

# batch size: 5; output growth per entry
1. COc1ccc(C2NC(=S)NC(C)=C2C(=O)OC(C)C)cc1OC (stereo unspecified)
2. Cc1ccc(C(=O)N/C(=C2/OCCN2C)[P+](c2ccccc2)(c2ccccc2)c2ccccc2)cc1
3. O=c1c2ccccc2nc(COc2ccccc2)n1/N=C/c1ccc(N2CCOCC2)cc1
4. O=C(CNc1nc(-c2ccccc2)cs1)Nc1ccc([N+](=O)[O-])cc1
5. CCOc1ccc(/C=N/NC(=O)Cn2nc(Cc3ccc([N+](=O)[O-])cc3)c3onc(C)c3c2=O)cc1

1: 114; 2: 122; 3: 78.2; 4: 109; 5: 45.1

Fill in growth for each of the 2 compounds listed.
1. COc1ccc(OC)c(/C=N/NC(=O)c2ccc3nc(-c4ccc(Cl)cc4)[nH]c3c2)c1
2. CN1CCN(c2ccc(Nc3nc(NCCCNC(=O)c4ccc(Cl)cc4)c4sccc4n3)cc2)CC1

1. 43.8
2. 136

Kindly give each listed record's growth.
1. CN1CCCN(Cc2ccc(C(=O)Nc3cccc(Nc4ccc5cc(O)ccc5n4)c3)cc2C(F)(F)F)CC1
2. CC(=O)Nc1ccc(-c2cn(-c3cccc(C(=O)Nc4cccc(OC(F)(F)F)c4)c3)nn2)cn1
3. CN1CCN(c2ccc(Nc3nc(N4CCN(S(=O)(=O)c5ccc(Cl)cc5)CC4)c4sccc4n3)cc2)CC1
4. CN1CCN(Cc2ccc(C(=O)Nc3cccc(Nc4ccc5c(O)cccc5n4)c3)cc2C(F)(F)F)CC1
5. COc1ccc(-c2cc(-c3cc(C(=O)c4ccccc4)n4ccc(C)cc34)nc(N)c2C#N)cc1

[139, 178, 125, -33.2, 127]

Provide growth for all items below, preserving their order.
1. O=C(c1ccc(O)cc1)C1[C@H](c2ccccc2Br)[C@@H](c2ccccc2)NC12C(=O)Nc1ccc(Br)cc12 (stereo partly specified)
2. COc1cc(C2CC(c3ccccc3)=Nc3c(N)nc(N)nc3N2)ccc1Oc1nc(Nc2ccc(F)cc2)nc(N(C)C)n1 (stereo unspecified)
3. Cc1cc2nc3c4ccccc4n(CCO)c3nc2cc1C
4. O=C(c1ccc(Cl)cc1)C1[C@H](c2ccccc2Br)[C@@H](c2ccccc2)NC12C(=O)Nc1ccc(Cl)cc12 (stereo partly specified)
5. CN1CCN(c2ccc(Nc3nc(NCCNC(=O)c4ccc(C(F)(F)F)cc4)c4sccc4n3)cc2)CC1

1. 80.5
2. 94.4
3. 61.6
4. 72.4
5. 69

* * *

For each of the compounds below, state its growth.
# Test system: HOP-62 NSCLC
# Measurement Protocol: NCI-60 one-dose screen, 48 h (100 = growth as untreated, 0 = no growth, -100 = all killed)
# Condition Info: 10 µM
This is part of a sample that, as a whole, favours compounds with a hit. Of some 83,000 tested, about 20% had one in any assay.
Numbers only, in %.

Record excerpt, results attached:
Compound	Measurement Unit	growth
Cc1ccc(CSc2nc(Cl)c(C#N)c(-c3ccc(F)cc3)n2)cc1	%	96.4
O=C(c1ccc(Cl)cc1)C1[C@H](c2ccccc2Br)[C@@H](c2ccccc2)NC12C(=O)Nc1ccc(Cl)cc12 (stereo not given in full)	%	38.9
O=C(Cn1nc(-c2ccccc2)ccc1=O)NNC(=S)NC1CCCCC1	%	104

Record growth for all entries; do not skip any.
1. O=C1CCC(N2Cc3cc(CC(=O)Nc4ccc(N5CCCCC5)cc4)ccc3C2=O)C(=O)N1 (stereo not given)
2. Brc1ccc(N/N=C/c2c[nH]c3ccccc23)nc1

[23.5, 32]

* * *

Would you kindly list growth for each of these molecules?
# System: T-47D breast
# Measurement Protocol: NCI-60 one-dose screen, 48 h (100 = growth as untreated, 0 = no growth, -100 = all killed)
# Condition Info: 10 µM
# Protocol: Growth inhibition of the T-47D human tumor cell line is measured as a screen for anti-cancer activity. Cells are grown in 96 well plates and exposed to the test compound for 48 hours. Compounds are tested at a single concentration, which is 10^-5 M for most compounds. The reported endpoint is percent growth (GI% or GIPRCNT), where numbers from 0 - 100% represent growth inhibition, and numbers from -100% - 0 represent cell death. For example, a value of 40 represents 60% growth inhibition. […]
The panel holds about 83,000 compounds, 20% with a hit somewhere; the sample as a whole holds those more often.
One number for each entry, in %.

See these solved cases before continuing.
Molecule	Reported Metric	Test Value
O=C(Cc1ccc2c(c1)CN(C1CCC(=O)NC1=O)C2=O)NCc1cccc2ccccc12 (stereo not drawn)	growth	-4.86
CNCc1cccc2c1OCCCCCC[C@@](C)(O)CC1(CC1)S(=O)(=O)c1ccc(cc1)-c1cnc(N)c(n1)C(=O)N2	growth	33.7

Please give growth, item by item, for the list that follows.
1. COc1cc2c(cc1OC)CN(CCCCOc1cc(O)c3c(=O)cc(-c4ccccc4)oc3c1)CC2
2. O=C1CCC(N2Cc3c(C#CCCCNC(=O)c4ccc(NC(=O)[C@@H]5NC6(CCCCC6)[C@@]6(C(=O)Nc7cc(Cl)ccc76)[C@H]5c5cccc(Cl)c5F)cc4)cccc3C2=O)C(=O)N1 (stereo partly drawn)
3. O=C1CCC(N2Cc3cc(NC(=O)COc4ccccc4)ccc3C2=O)C(=O)N1 (stereo not drawn)
4. CCCn1c(=O)c2[nH]c(-c3ccc(OCc4nc5ccc(C)cc5[nH]4)cc3)nc2n(CCC)c1=O
5. O=C(CSc1nnc(-c2ccc3nc(-c4ccccc4)[nH]c3c2)o1)Nc1ccc(Br)cc1
6. Cc1ccc2nc(COc3ccc(C(=O)NNC(=S)NC(=O)c4ccccc4)cc3)[nH]c2c1

1.69
38.4
49.2
-13.2
62.8
60.5

Data provenance: PubChem BioAssay (NCI)
